System: P. falciparum strain 7G8
test description: Antiplasmodial fluorescence-based SyBr Green assay, strain 7G8
Type: cell-based, Plasmodium falciparum
experimental setup: Plasmodium falciparum, 7G8, read-out: IC50 Values (nM) Strain 7G8
Below, each entry is listed with its recorded IC50.
measurement label: IC50 (nM)

molecule	observed value
CCN(CC)CCCC(C)Nc1ccnc2cc(Cl)ccc12 (centres unmarked) [Chloroquine, reference compound]	78
CCN(CC)CCCC(C)Nc1c2ccc(Cl)cc2nc2ccc(OC)cc12 (centres unmarked) [Quinacrine, reference compound]	9

---

Tested on: P. falciparum strain D6
test description: Antiplasmodial fluorescence-based SyBr Green assay, strain D6
Assay type: cell-based, Plasmodium falciparum
experimental setup: Plasmodium falciparum, D6; read-out: IC50 Values (nM) Strain D6
Below, each entry is listed with its recorded IC50.

compound	readout unit	IC50
CN(C)c1ccc(-c2cnc3cc(Cl)ccc3c2NCCCNC(C)(C)C)cc1	nM	5.1
CCN(CC)CCNc1c(-c2ccc(OC(F)(F)F)cc2)cnc2cc(Cl)ccc12	nM	35
CC(C)(C)NCCCNc1c(-c2ccc(C(F)(F)F)nc2)cnc2cc(Cl)ccc12	nM	55.2
CC(C)(C)NCCCNc1c(-c2ccc(Oc3ccc(OC(F)(F)F)cc3)cc2)cnc2cc(Cl)ccc12	nM	2.3
CC(C)(C)NCCCNc1c(-c2ccccc2)cnc2cc(Cl)ccc12	nM	8.7
C=C[C@H]1C[N@@]2CC[C@H]1C[C@H]2[C@H](O)c1ccnc2ccc(OC)cc12 [Quinine, reference compound]	nM	19
COc1ccc(-c2cnc3cc(Cl)ccc3c2NCCCNC(C)(C)C)cc1	nM	9.5
CC(C)(C)NCCCNc1c(-c2ccc(C(F)(F)F)cc2)cnc2cc(Cl)ccc12	nM	4.8
FC(F)(F)Oc1ccc(-c2cnc3cc(Cl)ccc3c2NCCC2CCCCN2)cc1 (stereo not drawn)	nM	0.7
CC(C)(C)NCCCNc1c(-c2ccc(Cl)cc2)cnc2cc(Cl)ccc12	nM	8
CC(C)(C)NCCCNc1c(-c2ccc(C#N)cc2)cnc2cc(Cl)ccc12	nM	13.5
CC(C)(C)NCCCNc1c(-c2ccc(N3CCOCC3)cc2)cnc2cc(Cl)ccc12	nM	4.4
CC(C)(C)NCCCNc1c(-c2ccc(-c3ccccc3)cc2)cnc2cc(Cl)ccc12	nM	0.9
O=C1C(O)=C([C@H]2CC[C@H](c3ccc(Cl)cc3)CC2)C(=O)c2ccccc21 [Atovaquone, reference compound]	nM	0.1
